- test-target: DIDO1 PHD domain M35C (UniProt Q9BTC0)
- protocol-summary: ITC
Non-standard residues stand in square brackets, D forms with d. No end group written: not given here. Lys(Me3) = C[N+](C)(C)CCCC[C@H](N)C(=O)O

[
  {
    "binder": "ART[Lys(Me3)]QTARKSTGGY [histone H3 tail peptide trimethylated at K4 (H3K4me3), ARTX… with X = Kme3]",
    "Kd / µM": 36
  }
]

// provenance: paper PMC8246079
